Entry source: patent US20240408169A1

Biological target: CyclinB1/CDK1 (Homo sapiens, UniProt P14635)
Construct: purchased Eurofins, discovery 14-450
Test: Fluorescence Polarization (FP) competitive binding assay, Cyclin B1/Cdk1;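 note: fluorescence polarization read after equilibration at room temperature, with IC50 taken from serially diluted dose-response curves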
Settings: 10 nM Cyclin B1/Cdk1, 2 nM FAM probe; average of 2-3 independent experiments; read-out: Cyclin B FP IC50
*1 amine or outer side, *2 acyl side, *3 side chain or, on linkers, in order; H or OH if unused. Where a SMILES comes first, the peptide text is derived from it. Bridges are numbered along the chain shown (N, C = ends). [ ]: non-standard residue; d: D form. The star is where a group is joined. NMePhe(2-(4-MorPh),5-Cl) = CN[C@@H](Cc1cc(Cl)ccc1-c1ccc(N2CCOCC2)cc1)C(=O)O; NMehhhLys(Me) = CN([C@@H](CCCCCCCN(C)[*:3])C(=O)[*:2])[*:1]; Pro(trans-4-F) = O=C(O)[C@@H]1C[C@@H](F)CN1; Pivaloyl(3,3,3-F3) = CC(C)(C(=O)*)C(F)(F)F; Gly(cPr) = N[C@H](C(=O)O)C1CC1
Please provide measured pIC50 for the entries that follow.
One number for each entry, as −log10 of the molar value.

# batch: return pIC50 for each of the 3 compounds below
1. CC(C)C[C@@H]1NC(=O)[C@@H](N(C)C(=O)[C@@H](NC(=O)[C@@H]2C[C@@H](F)CN2C(=O)C(C)(C)C(F)(F)F)C2CC2)CCCCCCCN(C)C(=O)[C@H](Cc2cc(Cl)ccc2-c2ccc(N3CCOCC3)cc2)N(C)C1=O [Example 335] ({Pivaloyl(3,3,3-F3)}-[Pro(trans-4-F)][Gly(cPr)][NMehhhLys(Me)]L[NMePhe(2-(4-MorPh),5-Cl)]; lactam 3-C)
2. CC(C)C[C@@H]1NC(=O)[C@@H](N(C)C(=O)[C@@H](NC(=O)[C@@H]2C[C@@H](F)CN2C(=O)C2(C(F)(F)F)CCC2)C2CC2)CC=CCCCCNC(=O)[C@H](Cc2cc(Cl)cnc2OC2CC2)N(C)C1=O (single isomer, unassigned) [Example 107-P1]
3. CC(C)C[C@@H]1NC(=O)[C@@H](N(C)C(=O)[C@@H](NC(=O)[C@@H]2C[C@@H](F)CN2C(=O)C2(C(F)(F)F)CC(F)(F)C2)C2CC2)CC=CCCCCN(C)C(=O)[C@H](Cc2cc(F)ccc2-c2cncnc2)N(C)C1=O

Key:
1. 7.70
2. 7.70
3. 7.70
